Tested on: Gram-Negative Organisms
Assay: microbe, parasite or virus in culture
Type: cell-based
Conditions: Klebsiella pneumoniae, ATCC43816, read-out: Minimal Inhibitory Concentration (MIC), K. pneumoniae ATCC 43816
Measured metric: MIC

molecule="CC1=C\\[C@@H](O)CC(=O)Cc2nc(co2)C(=O)N2CCC[C@@H]2C(=O)O[C@H]([C@H](C)COC(=O)Nc2ccc(Br)nc2)[C@H](C)/C=C/C(=O)NC\\C=C\\1 [SA0110209]" assayed_target="Gram-Negative Organisms" experimental_value="> 64 µg/mL"
molecule="CC1=C\\[C@@H](O)CC(=O)Cc2nc(co2)C(=O)N2CCC[C@@H]2C(=O)O[C@H]([C@@H](C)COC(=O)Nc2ccc(F)cc2)[C@H](C)/C=C/C(=O)NC\\C=C\\1 [SA0110036]" assayed_target="Gram-Negative Organisms" experimental_value="> 64 µg/mL"
molecule="CC1=C\\[C@@H](O)CC(=O)Cc2nc(co2)C(=O)N2CCC[C@@H]2C(=O)O[C@H]([C@H](C)COC(=O)Nc2ccccn2)[C@H](C)/C=C/C(=O)NC\\C=C\\1 [SA0110222]" assayed_target="Gram-Negative Organisms" experimental_value="> 64 µg/mL"
molecule="CC1=C\\[C@@H](O)C[C@@H](F)Cc2nc(co2)C(=O)N2CCC[C@@H]2C(=O)O[C@H](C(C)C)[C@H](C)/C=C/C(=O)NC\\C=C\\1 [flopristin, reference compound]" assayed_target="Gram-Negative Organisms" experimental_value="> 64 µg/mL"
molecule="CC1=C\\[C@@H](O)CC(=O)Cc2nc(co2)C(=O)N2CCC[C@@H]2C(=O)O[C@H]([C@@H](C)COC(=O)Nc2ccn(C)n2)[C@H](C)/C=C/C(=O)NC\\C=C\\1 [SA0110113]" assayed_target="Gram-Negative Organisms" experimental_value="> 64 µg/mL"

---

MIC data for S. pneumoniae follow.
Measured metric: MIC (µg/mL)

compound="CC1=C\\[C@@H](O)C[C@@H](F)Cc2nc(cs2)C(=O)N2CCC[C@@H]2C(=O)O[C@H](C(C)C)[C@H](C)/C=C/C(=O)NC\\C=C\\1 [SA0110279]" experimental_value=1
compound="CC1=C\\[C@@H](O)CC(=O)Cc2nc(co2)C(=O)N2CCC[C@@H]2C(=O)O[C@H](C(C)C)[C@H](C)/C=C/C(=O)NC\\C=C\\1 [virginiamycin M2, Virginiamycin M2, reference compound]" experimental_value=8
compound="CC1=C\\[C@@H](O)CC(=O)Cc2nc(co2)C(=O)N2CCC[C@@H]2C(=O)O[C@H]([C@@H](C)COC(=O)Nc2ccc(C)cc2)[C@H](C)/C=C/C(=O)NC\\C=C\\1 [SA0110037]" experimental_value=16
compound="CC1=C\\[C@@H](O)CC(=O)Cc2nc(c([Si](C)(C)C)o2)C(=O)N2CCC[C@@H]2C(=O)O[C@H](C(C)C)[C@H](C)/C=C/C(=O)NC\\C=C\\1 [SA0110261]" experimental_value=64
compound="COc1ccc(NC(=O)OC[C@H](C)[C@H]2OC(=O)[C@H]3CCCN3C(=O)c3coc(n3)CC(=O)C[C@H](O)/C=C(C)/C=C/CNC(=O)/C=C/[C@H]2C)cc1 [SA0110040]" experimental_value=16

---

In this section we review reported MIC values for a set of compounds.
System: S. aureus
Experiment: MIC, Gram-positive bacteria: S. aureus (strains not named)
Assay type: cell-based
Conditions: Staphylococcus aureus, second unnamed S. aureus column (c6), read-out: Minimal Inhibitory Concentration (MIC) S. aureus
Measured metric: MIC (µg/mL)

compound="CC1=C\\[C@@H](O)C[C@@H](F)Cc2nc(cs2)C(=O)N2CCC[C@@H]2C(=O)O[C@H](C(C)C)[C@H](C)/C=C/C(=O)NC\\C=C\\1 [SA0110279]" unit_name=µg/mL relation== experimental_value=0.5
compound="CC1=C\\[C@@H](O)CC(=O)Cc2nc(co2)C(=O)N2CCC[C@@H]2C(=O)O[C@H]([C@@H](C)COC(=O)Nc2cc(C)on2)[C@H](C)/C=C/C(=O)NC\\C=C\\1 [SA0110115]" unit_name=µg/mL relation=> experimental_value=64
compound="CC1=C\\[C@@H](O)CC(=O)Cc2nc(co2)C(=O)N2CCC[C@@H]2C(=O)O[C@H]([C@@H](C)COC(=O)Nc2ccc(C)cc2)[C@H](C)/C=C/C(=O)NC\\C=C\\1 [SA0110037]" unit_name=µg/mL relation== experimental_value=32
compound="CC1=C\\[C@@H](O)CC(=O)Cc2nc(co2)C(=O)N2CCC[C@@H]2C(=O)O[C@H]([C@H](C)COC(=O)Nc2ccc3ccccc3n2)[C@H](C)/C=C/C(=O)NC\\C=C\\1 [SA0110223]" unit_name=µg/mL relation== experimental_value=8
compound="CC1=C\\[C@@H](O)CC(=O)Cc2nc(co2)C(=O)N2CCC[C@@H]2C(=O)O[C@H]([C@@H](C)COC(=O)Nc2coc(C)n2)[C@H](C)/C=C/C(=O)NC\\C=C\\1 [SA0110095]" unit_name=µg/mL relation=> experimental_value=64

---

Tested on: Gram-Negative Organisms
Test: microbe, parasite or virus in culture
Assay type: cell-based
Conditions: Escherichia coli, read-out: Minimal Inhibitory Concentration (MIC), E. coli permeability mutant BAS1314; IMP4213ZAB::TN10
Measured metric: MIC (µg/mL)

compound=CC1=C\[C@@H](O)CC(=O)Cc2nc(co2)C(=O)N2CCC[C@@H]2C(=O)O[C@H]([C@@H](C)COC(=O)Nc2cc(C)on2)[C@H](C)/C=C/C(=O)NC\C=C\1 relation== experimental_value=16
compound=CC1=C\[C@@H](O)CC(=O)Cc2nc(co2)C(=O)N[C@H](Cc2ccccc2)C(=O)O[C@H](C(C)C)[C@H](C)/C=C/C(=O)NC\C=C\1 relation== experimental_value=4
compound=CC1=C\[C@@H](O)CC(=O)Cc2nc(co2)C(=O)N2CCC[C@@H]2C(=O)O[C@H]([C@@H](C)CN2CCOCC2)[C@H](C)/C=C/C(=O)NC\C=C\1 relation=> experimental_value=64
compound=CC1=C\[C@@H](O)C[C@@H](F)Cc2nc(cs2)C(=O)N2CCC[C@@H]2C(=O)O[C@H](C(C)C)[C@H](C)/C=C/C(=O)NC\C=C\1 relation=< experimental_value=0.06
compound=CC1=C\[C@@H](O)CC(=O)Cc2nc(co2)C(=O)N2CCC[C@@H]2C(=O)O[C@H]([C@H](C)COC(=O)Nc2ccccc2)[C@H](C)/C=C/C(=O)NC\C=C\1 relation== experimental_value=8
compound=CC1=C\[C@@H](O)CC(=O)Cc2nc(co2)C(=O)N2CCC[C@@H]2C(=O)O[C@H]([C@@H](C)CN2CCN(C)CC2)[C@H](C)/C=C/C(=O)NC\C=C\1 relation=> experimental_value=64
compound=CC1=C\[C@@H](O)CC(=O)Cc2nc(co2)C(=O)N2CCC[C@@H]2C(=O)O[C@H]([C@H](C)COC(=O)Nc2ccc(C)cc2)[C@H](C)/C=C/C(=O)NC\C=C\1 relation== experimental_value=2
compound="CC1=C\\[C@@H](O)CC(=O)Cc2nc(co2)C(=O)N2CCC[C@@H]2C(=O)O[C@H](C(C)C)[C@H](C)/C=C/C(=O)NC\\C=C\\1 [virginiamycin M2, Virginiamycin M2, reference compound]" relation== experimental_value=2
compound=CC(C)[C@H]1OC(=O)[C@H]2CCCN2C(=O)c2coc(n2)CC(=O)C[C@H](O)/C=C/C=C/CNC(=O)/C=C/[C@H]1C relation== experimental_value=8
compound=CC1=C\[C@@H](O)CC(=O)Cc2nc(co2)C(=O)N2CCC[C@@H]2C(=O)O[C@H]([C@H](C)COC(=O)Nc2ccccn2)[C@H](C)/C=C/C(=O)NC\C=C\1 relation== experimental_value=16
compound=CC1=C\[C@@H](O)CC(=O)Cc2nc(co2)C(=O)N2CCC[C@@H]2C(=O)O[C@H]([C@@H](C)COC(=O)Nc2ccccn2)[C@H](C)/C=C/C(=O)NC\C=C\1 relation== experimental_value=8
compound=CC1=C\[C@@H](O)CC(=O)Cc2nc(co2)C(=O)N2CCC[C@@H]2C(=O)O[C@H]([C@H](C)COC(=O)Nc2ccn(C)n2)[C@H](C)/C=C/C(=O)NC\C=C\1 relation== experimental_value=32
compound=CC1=C\[C@@H](O)CC(=O)Cc2nc(co2)C(=O)N2CCC[C@@H]2C(=O)O[C@H]([C@H](C)COC(=O)Nc2cnccn2)[C@H](C)/C=C/C(=O)NC\C=C\1 relation== experimental_value=16
compound=CC1=C\[C@@H](O)CC(=O)Cc2nc(co2)C(=O)N2CCC[C@@H]2C(=O)O[C@H]([C@H](C)COC(=O)Nc2coc(C)n2)[C@H](C)/C=C/C(=O)NC\C=C\1 relation== experimental_value=8
compound=CC1=C\[C@@H](O)CC(=O)Cc2nc(co2)C(=O)N2CCC[C@@H]2C(=O)O[C@H]([C@H](C)COC(=O)Nc2cccnc2)[C@H](C)/C=C/C(=O)NC\C=C\1 relation== experimental_value=16
compound=CC1=C\[C@@H](O)CC(=O)Cc2nc(co2)C(=O)N2CCC[C@@H]2C(=O)O[C@H]([C@@H](C)COC(=O)Nc2ccnc(Br)c2)[C@H](C)/C=C/C(=O)NC\C=C\1 relation== experimental_value=32
compound=CC1=C\[C@@H](O)CC(=O)Cc2nc(co2)C(=O)N[C@H](Cc2ccc(O)cc2)C(=O)O[C@H](C(C)C)[C@H](C)/C=C/C(=O)NC\C=C\1 relation== experimental_value=32
compound=CC1=C\[C@@H](O)CC(=O)Cc2nc(co2)C(=O)N[C@H](Cc2c[nH]c3ccccc23)C(=O)O[C@H](C(C)C)[C@H](C)/C=C/C(=O)NC\C=C\1 relation== experimental_value=8
compound="CC1=C\\[C@@H](O)CC(=O)Cc2nc(co2)C(=O)N2CCC=C2C(=O)O[C@H](C(C)C)[C@H](C)/C=C/C(=O)NC\\C=C\\1 [virginiamycin M1, Virginiamycin M1, reference compound]" relation== experimental_value=0.25
compound=COc1ccc(NC(=O)OC[C@H](C)[C@H]2OC(=O)[C@H]3CCCN3C(=O)c3coc(n3)CC(=O)C[C@H](O)/C=C(C)/C=C/CNC(=O)/C=C/[C@H]2C)cc1 relation== experimental_value=8
compound=CC1=C\[C@@H](O)CC(=O)Cc2nc(co2)C(=O)N2CCC[C@@H]2C(=O)O[C@H]([C@@H](C)COC(=O)Nc2ccccc2)[C@H](C)/C=C/C(=O)NC\C=C\1 relation== experimental_value=8
compound=CC1=C\[C@@H](O)CC(=O)Cc2nc(co2)C(=O)N[C@H](CCCCN)C(=O)O[C@H](C(C)C)[C@H](C)/C=C/C(=O)NC\C=C\1 relation== experimental_value=32
compound=CC1=C\[C@@H](O)CC(=O)Cc2nc(co2)C(=O)N2CCC[C@@H]2C(=O)O[C@H]([C@@H](C)COC(=O)Nc2ccc(C)cc2)[C@H](C)/C=C/C(=O)NC\C=C\1 relation== experimental_value=8
